Test system: HEK293
assay method text: Cytotoxicity against human HEK293 cells assessed as reduction in cell viability at 20 uM measured after 48 hrs by resazurin reagent based multilabel reader analysis
Type: toxicity
condition description: hek293, 48 h
readout kind: CC50

[[record]]
compound_structure_string = "Cc1ccc(CCC(O)CCc2ccc(C)cc2)cc1"
val = "> 20 µM"

[[record]]
compound_structure_string = "O=C(CCc1cccc(Br)c1)CCc1cccc(Br)c1"
val = "> 20 µM"

[[record]]
compound_structure_string = "COc1cc(CCC(=O)CCc2cc(OC)c(OC)c(OC)c2)cc(OC)c1OC"
val = "> 20 µM"

[[record]]
compound_structure_string = "O=C(/C=C/c1cccc(Br)c1)/C=C/c1cccc(Br)c1"
val = "> 20 µM"

[[record]]
compound_structure_string = "COc1cccc(/C=C/C(=O)/C=C/c2cccc(OC)c2)c1"
val = "> 20 µM"

[[record]]
compound_structure_string = "N=C(N)c1ccc(OCCCCCOc2ccc(C(=N)N)cc2)cc1"
val = "> 4 µM"

[[record]]
compound_structure_string = "COc1cc(CCC(O)CCc2cc(OC)c(OC)c(OC)c2)cc(OC)c1OC"
val = "> 20 µM"

[[record]]
compound_structure_string = "COc1ccc(/C=C/C(=O)CC(=O)/C=C/c2ccc(OC)c(OC)c2)cc1OC"
val = "> 20 µM"

[[record]]
compound_structure_string = "O=C(/C=C/c1ccc(Cl)c(Cl)c1)CC(=O)/C=C/c1ccc(Cl)c(Cl)c1"
val = "> 20 µM"

[[record]]
compound_structure_string = "COc1ccc(/C=C/C(=O)/C=C/c2ccc(OC)cc2)cc1"
val = "> 20 µM"

[[record]]
compound_structure_string = "COc1cccc(/C=C/C(=O)CC(=O)/C=C/c2cccc(OC)c2)c1"
val = "> 20 µM"

[[record]]
compound_structure_string = "O=C(CCc1ccccc1Cl)CCc1ccccc1Cl"
val = "> 20 µM"

[[record]]
compound_structure_string = "COc1ccc(CCC(=O)CCc2ccc(OC)c(OC)c2)cc1OC"
val = "> 20 µM"


* * *

Tested on: HEK293
assay method text: Cytotoxicity against human HEK293 cells assessed as reduction in cell viability at 20 uM measured after 48 hrs by resazurin reagent based multilabel reader analysis
Format: toxicity
condition description: hek293, 48 h
Measured CC50, listed per entry.
readout kind: CC50

[[record]]
compound_structure_string = "Cc1ccc(/C=C/C(=O)/C=C/c2ccc(C)cc2)cc1"
val = "> 20 µM"

[[record]]
compound_structure_string = "COc1ccc(CCC(O)CCc2ccc(OC)c(OC)c2)cc1OC"
val = "> 20 µM"

[[record]]
compound_structure_string = "O=C(/C=C/c1ccccc1)CC(=O)/C=C/c1ccccc1"
val = "> 20 µM"

[[record]]
compound_structure_string = "O=C(/C=C/c1ccccc1)/C=C/c1ccc(Cl)cc1"
val = "> 20 µM"

[[record]]
compound_structure_string = "Cc1ccc(CCC(=O)CCc2ccc(C)cc2)cc1"
val = "> 20 µM"

[[record]]
compound_structure_string = "OC(CCc1cccc(Br)c1)CCc1cccc(Br)c1"
val = "> 20 µM"

[[record]]
compound_structure_string = "OC(CCc1ccccc1Cl)CCc1ccccc1Cl"
val = "> 20 µM"

